Reference for the values: patent US20250002471A1

Please respond with reported EC50 for every item in the list.
biological target: TLR9 (Homo sapiens, UniProt Q9NR96); construct: lymphocytes, monocytes and dendritic cells that express TLR7, TLR8 and TLR9; endogenous in cells; host or cells: human PBMCs from healthy donors; assay: Human PBMC cell-based assay, TLR9 agonist ODN-2216 stimulation, cytokine (IL-6 and IFNα) readout; details: human PBMCs, ODN-2216 3 μM, 6 hours; Table 26; read-out: TLR-9 EC50
Sequence (Q9NR96 26-1032): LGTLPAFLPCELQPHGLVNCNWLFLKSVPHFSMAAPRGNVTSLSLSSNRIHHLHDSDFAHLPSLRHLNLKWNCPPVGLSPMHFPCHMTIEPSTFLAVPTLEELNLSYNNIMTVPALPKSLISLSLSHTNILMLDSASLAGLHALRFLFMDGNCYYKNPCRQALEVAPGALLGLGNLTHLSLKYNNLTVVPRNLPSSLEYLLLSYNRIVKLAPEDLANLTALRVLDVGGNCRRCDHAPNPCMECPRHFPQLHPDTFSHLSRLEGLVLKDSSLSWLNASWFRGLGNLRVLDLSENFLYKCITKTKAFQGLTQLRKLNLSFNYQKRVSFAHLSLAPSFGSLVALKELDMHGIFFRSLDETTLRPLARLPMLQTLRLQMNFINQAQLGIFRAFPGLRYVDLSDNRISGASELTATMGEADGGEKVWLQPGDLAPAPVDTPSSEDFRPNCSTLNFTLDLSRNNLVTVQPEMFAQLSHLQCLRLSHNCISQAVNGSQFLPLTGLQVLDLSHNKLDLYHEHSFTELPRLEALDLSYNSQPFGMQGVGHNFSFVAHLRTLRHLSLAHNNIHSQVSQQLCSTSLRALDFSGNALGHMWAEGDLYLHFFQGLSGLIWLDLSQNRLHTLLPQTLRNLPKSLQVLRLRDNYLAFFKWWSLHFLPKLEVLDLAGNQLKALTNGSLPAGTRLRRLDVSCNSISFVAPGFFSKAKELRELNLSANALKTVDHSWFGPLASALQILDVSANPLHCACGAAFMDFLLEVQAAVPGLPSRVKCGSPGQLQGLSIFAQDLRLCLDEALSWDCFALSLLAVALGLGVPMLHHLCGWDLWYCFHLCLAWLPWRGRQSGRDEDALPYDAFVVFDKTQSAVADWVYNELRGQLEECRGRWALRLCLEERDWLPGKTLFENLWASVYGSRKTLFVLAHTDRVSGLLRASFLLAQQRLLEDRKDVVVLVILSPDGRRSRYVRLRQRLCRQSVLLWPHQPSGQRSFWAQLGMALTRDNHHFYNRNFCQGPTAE
Report the figure along with its unit, number first.

**Q:** If you can, please state the reported EC50 value of Cc1cc(-c2[nH]c3cc(-c4ccc(NC5CCNCC5)nc4)ccc3c2C)cc(C)n1 [Example 24] .
**A:** 0.0896 µM

**Q:** If you can, please state the reported EC50 value of Cc1cc(-c2[nH]c3cc(-c4ccc(N5CCNCC5)nc4)ccc3c2C)cn(C)c1=O [Example 94] .
**A:** 0.139 µM

**Q:** If you can, please state the reported EC50 value of Cc1cc(-c2[nH]c3cc(-c4ccc(N5CCN(CC(C)O)CC5)nc4)ccc3c2C)cc(C)n1 (stereo not drawn) [Example 118] .
**A:** 0.0587 µM

**Q:** If you can, please state the reported EC50 value of Cc1cc(-c2[nH]c3cc(-c4ccc(N5CCN(CC(F)(F)F)CC5)nc4)ccc3c2C)cc(C)n1 [Example 142] .
**A:** 1.37 µM

**Q:** If you can, please state the reported EC50 value of Cc1cc(-c2[nH]c3cc(-c4cccc5c4CCNC5)ccc3c2C)cc(C)n1 [Example 62] .
**A:** 0.18 µM

**Q:** If you can, please state the reported EC50 value of Cc1cc(-c2[nH]c3cc(C(=O)NC4CCNCC4)ccc3c2C)cc(C)n1 [Example 178] .
**A:** 1.88 µM

**Q:** If you can, please state the reported EC50 value of Cc1cc(-c2[nH]c3cc(-c4ccc(N5CCN(CCN(C)C)CC5)nc4)ccc3c2C)cc(C)n1 [Example 114] .
**A:** 0.0361 µM

**Q:** If you can, please state the reported EC50 value of Cc1cc(-c2[nH]c3cc(-c4ccc5[nH]cnc5c4)ccc3c2C)cc(C)n1 [Example 44] .
**A:** 0.242 µM

**Q:** If you can, please state the reported EC50 value of Cc1cc(-c2[nH]c3cc(-c4ccc(C(=O)N5CCC(N)CC5)nc4)ccc3c2C)cc(C)n1 [Example 145] .
**A:** 0.277 µM

**Q:** If you can, please state the reported EC50 value of Cc1cc(-c2[nH]c3cc(-c4ccc(N5CCN(C(=O)[C@H]6CCCN6)CC5)nc4)ccc3c2C)cc(C)n1 [Example 134] .
**A:** 0.0589 µM

**Q:** If you can, please state the reported EC50 value of Cc1cc(-c2[nH]c3cc(-c4ccc(N5CCNCC5)nc4)ccc3c2C2CC2)cc(C)n1 [Example 63] .
**A:** 0.189 µM

**Q:** If you can, please state the reported EC50 value of Cc1cc(-c2[nH]c3cc(-c4ccc(N5CCNCC5)cc4)ccc3c2C)cc(C)n1 [Example 66] .
**A:** 0.0512 µM

---

Please respond with reported EC50 for every item in the list.
biological target: TLR9 (Homo sapiens, UniProt Q9NR96); construct: lymphocytes, monocytes and dendritic cells that express TLR7, TLR8 and TLR9; endogenous in cells; host or cells: human PBMCs from healthy donors; assay: Human PBMC cell-based assay, TLR9 agonist ODN-2216 stimulation, cytokine (IL-6 and IFNα) readout; conditions: human PBMCs, ODN-2216 3 μM, 6 hours; Table 26; read-out: TLR-9 EC50
Report as a plain number; the unit nM is understood.

**Q:** Lab note: need EC50 for Cc1cc(-c2[nH]c3cc(-c4ccc(C5=CCNCC5)nc4)ccc3c2C)cc(C)n1 on TLR9 (Homo sapiens, UniProt Q9NR96), anyone have it?
**A:** 10.6

**Q:** Lab note: need EC50 for Cc1cc(-c2[nH]c3cc(C(=O)N4CCC5(CCNCC5)CC4)ccc3c2C)cc(C)n1 on TLR9 (Homo sapiens, UniProt Q9NR96), anyone have it?
**A:** 835

**Q:** Lab note: need EC50 for Cc1cc(-c2[nH]c3cc(-c4ccc(N5CCN(C(=O)[C@H]6CCCN6C)CC5)nc4)ccc3c2C)cc(C)n1 on TLR9 (Homo sapiens, UniProt Q9NR96), anyone have it?
**A:** 35.5

**Q:** Lab note: need EC50 for Cc1cc(-c2[nH]c3cc(-c4ccc(C(=O)N5CCC(N)CC5)cc4)ccc3c2C)cc(C)n1 on TLR9 (Homo sapiens, UniProt Q9NR96), anyone have it?
**A:** 98.3
